- Tested on: DLD1
- Test Description: cell viability (CellTiter-Glo) relative to plate median (fraction of plate median); higher = more viable cells
- Condition Notes: 5 µM; treatment time 24 h; reporter: 7TFP
Sorting guide: entries reporting cell viability beneath 1 go in the 1 pile, the rest go in the -1 pile.

// known answers, use as guide
Cc1cc(=O)n(-c2ccccc2)n1C; -1
CC/C(=C(/CC)c1ccc(O)cc1)c1ccc(O)cc1; 1
CC(C)Cc1ccc(C(C)C(=O)O)cc1 (stereo unspecified); 1

// query Say whether its cell viability is strictly beneath 1. Entry: CN(C)C(=O)Nc1ccc(Cl)c(Cl)c1
// result 1

// query Say whether its cell viability is strictly beneath 1. Entry: CC(C)NCC(O)COc1ccc(CC(N)=O)cc1 (stereo unspecified)
// result -1

// query Say whether its cell viability is strictly beneath 1. Entry: CNS(=O)(=O)Cc1ccc2[nH]cc(CCN(C)C)c2c1
// result -1
